# ASSAY TARGET: T1, Smc5 hinge (extended-hinge);Smc6 hinge (extended-hinge) (Schizosaccharomyces …, UniProt O13710;P53692 364-692;462-773, |)
# T1 sequence 1: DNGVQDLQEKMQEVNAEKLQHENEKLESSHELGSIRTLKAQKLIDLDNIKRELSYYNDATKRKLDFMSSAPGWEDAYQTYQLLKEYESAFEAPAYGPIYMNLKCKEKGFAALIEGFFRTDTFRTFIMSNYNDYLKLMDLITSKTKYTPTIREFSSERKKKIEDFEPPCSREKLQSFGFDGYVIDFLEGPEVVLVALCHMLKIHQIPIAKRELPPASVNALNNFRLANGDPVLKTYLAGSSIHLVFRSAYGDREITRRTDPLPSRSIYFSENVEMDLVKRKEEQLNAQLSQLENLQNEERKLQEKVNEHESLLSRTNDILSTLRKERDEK
# T1 sequence 2: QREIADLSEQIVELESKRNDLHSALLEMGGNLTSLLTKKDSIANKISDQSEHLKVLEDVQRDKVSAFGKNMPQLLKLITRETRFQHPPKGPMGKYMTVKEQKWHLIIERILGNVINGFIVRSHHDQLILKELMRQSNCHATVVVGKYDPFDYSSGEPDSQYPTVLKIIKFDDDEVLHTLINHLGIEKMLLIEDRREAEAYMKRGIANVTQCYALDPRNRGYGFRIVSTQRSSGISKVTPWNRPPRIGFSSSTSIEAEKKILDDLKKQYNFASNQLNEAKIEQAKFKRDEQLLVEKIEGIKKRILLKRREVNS
# PROTOCOL: fluorescence polarization; 20 mM HEPES.NaOH pH 7.5, 100 mM NaCl, 1 mM EDTA, 0.5 mM TCEP, room temperature 10 min, 100 nM DNA (FP, EMSA); pull-down same buffer, protein incubation 4 C 30 min; switchSENSE buffer not given
# CONDITION LABEL: protein: recombinant;recombinant, tags: N-terminal His6, HRV-3C cleaved;N-terminal StrepII, copies: 1;1, label: 5' fluorescein, single strand
PROPERTY: Kd

Input: Please look at this binder and report its Kd: GCTCGTCTGGCTCTG (ssDNA) [15mer]
Output: ~1200 nM
